In this section, each of the binders is paired with its reported binding affinity ratio (IC50 of standard peptide / IC50 of test peptide).
# subject of test: T1, HLA-DR5w12 (DRB1*1201) (human)
# T1 chain 1: not shown
# T1 chain 2: not shown
measured property: binding affinity ratio (IC50 of standard peptide / IC50 of test peptide)

binder	numeric result
AGGIAGGLALLACAG (modifications not checked) [… (Pf SSP2 513)]	0.0007
AGGLALLACAGLAYK (modifications not checked) [… (Pf SSP2 517)]	0.0051
IGPFMKAVCVEVEKT (modifications not checked) [… (Pf SSP2 227)]	0.0038
LIDVHDLISDMIKKE (modifications not checked) [… (Pf EXP 47)]	0.0001
VVILTDGIPDSIQDS (modifications not checked) [… (Pf SSP2 157)]	0.0001
AVPLAMKLIQQLNLN (modifications not checked) [… (Pf SSP2 68)]	0.13
RHPFKIGSSDPADNA (modifications not checked) [… (Pf EXP 107)]	0.0001
CVEVEKTASCGVWDE (modifications not checked) [… (Pf SSP2 235)]	0.0001
MKILSVFFLALFFII (modifications not checked) [… (Pf EXP 1)]	0.0023
ANQLVVILTDGIPDS (modifications not checked) [… (Pf SSP2 153)]	0.0003
